Data provenance: patent US20230002503A1

measured.on: human CAIX antigen (purchased from AcroBiosystems) (human, UniProt Q16790 38-414)
test.protocol: BLI (ForteBio), antibody on AHQ sensor, 100 nM antigen, 1:1 model
Consider the following binders; for each one, report its koff.
One number for each entry, in s⁻¹.

[
  {
    "binder": "H-YE-26 (Fc fusion, also called CAIX nanobody H-YE-26; not shown: human IgG1 Fc segment) QVQLQESGGGLVQAGGSLRLSCAASGNSVNIFRFATVAWYRQAPGEQRELVAVITSAGGTKYSDSVKGRFTISRDNAKNTVLLQMNSLKPEDTAVYYCNADFLQDYWGQGTQVTVSS",
    "koff [s⁻¹]": 0.000109
  },
  {
    "binder": "H-YE-38 (Fc fusion, also called CAIX nanobody H-YE-38; not shown: human IgG1 Fc segment) QVQLQESGGGLMQPGGSLTLSCAVPRFTLDYYAIGWFRQAPGKEREFVAAISWSGGTTQYSDSAKGRFTISRDNSKNTGYLQMNSLKPEDTATYYCAAGRQLEWRTYDYWGQGTQVTVSS",
    "koff [s⁻¹]": 0.000513
  },
  {
    "binder": "H-YE-23 (Fc fusion, also called CAIX nanobody H-YE-23; WYE-23; not shown: human IgG1 Fc segment) QVQLQESGGGLVQPGGSLRLSCAASGNSANIFSFASVAWYRQAPGKQRELVAVITSAGGTKYSDSVKGRFTISRDNAKNTILLQMNSLKPEDTAVYYCNVDYLQDYWGQGTQVTVSS",
    "koff [s⁻¹]": 0.0002
  }
]

What koff value was documented for this binder, H-YE-03 (Fc fusion, also called CAIX nanobody H-YE-03; not shown: human IgG1 Fc segment) QVQLQESGGGLVQPGGSLRLSCTASTSSFNFQTMGWYRQAPGKQRELVATITSRAITNYADSVKGRFTISRDNAAKTVSLQMNSLKPEDTAVYYCNAAWIGDYWGQGTQVTVSA ? 0.00141
